This collection of values is drawn from PubChem BioAssay (NCATS).

tested on: CP268; assay: qHTS profiling for inhibitors of Plasmodium falciparum proliferation (AID 504749); further: nearly all actives have a fitted effect of over 60% in size; details: P. falciparum in erythrocytes, SYBR Green DNA, 72 h; series mostly up to 28.7 µM
Inconclusive results are not listed. The source made the active and inactive calls. The call rests on the fitted dose curve; in most records, active means well fitted inhibition curve with a large enough effect; inconclusive means small, poorly fitted or top-dose-only effect; inactive means flat fitted curve, though single readings scatter.
Outcome codes: active, inactive

1. CCN(CC)CCC(=O)N1c2ccccc2Sc2ccc(C(F)(F)F)cc21 :: inactive
2. CCN(CC)CCCC(C)Nc1cc(/C=C/c2ccccc2Cl)nc2cc(Cl)ccc12 (stereo unspecified) :: active
3. S=C=Nc1ccc(N=C=S)cc1 :: inactive
4. Nc1ccc(N=Nc2ccccc2)c(N)n1 :: inactive
5. C[C@H](O)CN(C)C :: inactive
6. Cc1nc(NS(=O)(=O)c2ccc(N)cc2)nc(C)c1Br :: inactive
7. CC(C)CCC[C@@H](C)[C@H]1CC[C@H]2[C@@H]3CC[C@@H]4C[C@H](O)CC[C@]4(C)[C@H]3CC[C@]12C :: inactive
8. COC(=O)c1ccccc1O :: inactive
9. NCC[C@H](O)C(=O)N[C@@H]1C[C@H](N)[C@@H](O[C@H]2O[C@H](CN)CC[C@H]2N)[C@H](O)[C@H]1O[C@H]1O[C@H](CO)[C@@H](O)[C@H](N)[C@H]1O :: inactive
10. NC(=O)C1c2ccccc2CCc2ccccc21 :: inactive
11. O=C(O)Cc1nn(Cc2ccc(Br)cc2F)c(=O)c2ccccc12 :: inactive
12. O=C(O)COc1ccccc1/C=N/NC(=O)c1ccncc1 :: inactive
13. O=[N+]([O-])c1c(Cl)cccc1-c1c[nH]cc1Cl :: inactive
14. COc1cc(S(C)=O)ccc1-c1nc2ncccc2[nH]1 (stereo unspecified) :: inactive
15. CC(C)c1nc(N(C)S(C)(=O)=O)nc(-c2ccc(F)cc2)c1/C=C/C(O)CC(O)CC(=O)O (stereo unspecified) :: inactive
16. Cc1cc(-c2ccc(N=Nc3ccc4c(S(=O)(=O)O)cc(S(=O)(=O)O)c(N)c4c3O)c(C)c2)ccc1N=Nc1ccc2c(S(=O)(=O)O)cc(S(=O)(=O)O)c(N)c2c1O :: inactive
17. Cc1cc(C)c(NC(=O)C[C@H](CC(=O)O)c2cccc3ccccc23)c(C(=O)N2CCC3(CCCC3)CC2)c1 :: inactive
18. CN1C(=O)C[C@@H](C(=O)N[C@@H](Cc2cnc[nH]2)C(=O)N2CCC[C@H]2C(N)=O)NC1=O :: inactive
19. O=C(O[C@H]1CN2CCC1CC2)N1CCc2ccccc2[C@@H]1c1ccccc1 :: inactive
20. CC1CCC(NC(=O)N(CCCl)N=O)CC1 (stereo unspecified) :: inactive
21. CC1(C)S[C@@H]2[C@H](NC(=O)C3(N)CCCCC3)C(=O)N2[C@H]1C(=O)O :: inactive

---

molecular target: Cytochrome P450 2C9 (Homo sapiens) (UniProt P11712); test: Cytochrome P450 family 2 subfamily C member 9 (CYP2C9) small molecule antagonists: luciferase biochemical (cell-free) qHTS assay (AID 1645842); conditions: P450-Glo CYP2C9 enzyme assay, luciferin luminescence; series mostly up to 57.4 µM; further: nearly all actives have a fitted effect of over 55% in size
Sequence (P11712 whole entry, looked up): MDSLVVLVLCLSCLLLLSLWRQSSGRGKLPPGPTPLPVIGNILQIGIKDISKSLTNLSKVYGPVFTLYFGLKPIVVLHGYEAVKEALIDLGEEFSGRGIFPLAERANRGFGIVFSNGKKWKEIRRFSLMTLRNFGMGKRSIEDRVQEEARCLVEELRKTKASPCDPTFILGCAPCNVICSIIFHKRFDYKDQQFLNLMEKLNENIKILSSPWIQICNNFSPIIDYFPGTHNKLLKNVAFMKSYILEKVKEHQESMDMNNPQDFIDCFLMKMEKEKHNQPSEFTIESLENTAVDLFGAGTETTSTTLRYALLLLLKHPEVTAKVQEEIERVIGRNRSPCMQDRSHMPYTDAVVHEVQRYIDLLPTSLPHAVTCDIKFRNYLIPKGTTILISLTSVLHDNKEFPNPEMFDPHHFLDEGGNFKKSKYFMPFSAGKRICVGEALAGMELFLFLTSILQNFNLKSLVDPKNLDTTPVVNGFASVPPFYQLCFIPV
Records with an inconclusive call do not appear. Calls of active or inactive are those of the source. The call rests on the fitted dose curve; in most records, active means well fitted inhibition curve with a large enough effect in the repeat runs; inconclusive means weak or mixed curves; inactive means no such curve, though single readings can be large or run the other way.
Outcome codes: t for active, f for inactive

1) CC(CCc1ccc(O)cc1)NCC(O)c1ccc(O)cc1 (centres undefined) :: f
2) CCOC(=O)C1=C(COCCN)NC(C)=C(C(=O)OC)C1c1ccccc1Cl (centres undefined) :: t
3) Nc1nccs1 :: f
4) C/C=C/C=C/C(=O)O :: f
5) CC1(O)CCC(C(C)(C)O)CC1 (centres undefined) :: f
6) C=CC1=C(C(=O)O)N2C(=O)[C@@H](NC(=O)/C(=N\O)c3csc(N)n3)[C@H]2SC1 (stereo in doubt) :: f
7) CN(C)CCCSc1ccccc1NC(=O)/C=C/c1ccccc1 :: f
8) CCN(CC)C(=O)c1cccnc1 :: f
9) CC[C@H]1OC(=O)C[C@@H](O)[C@H](C)[C@@H](O[C@@H]2O[C@H](C)[C@@H](O[C@H]3C[C@@](C)(O)[C@@H](O)[C@H](C)O3)[C@H](N(C)C)[C@H]2O)[C@@H](CC=O)C[C@@H](C)C(=O)/C=C/C(C)=C/[C@@H]1CO[C@@H]1O[C@H](C)[C@@H](O)[C@@H](OC)[C@H]1OC :: f

---

Each record here notes measured growth, % of control.
assay: qHTS profiling of the MIPE4 collection as inhibitors of Plasmodium falciparum (HB3) proliferation (AID 743347);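 further: plate controls were DMSO vehicle wells for no effect and artemisinin wells for full effect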; settings: P. falciparum HB3 in erythrocytes, SYBR Green DNA, 72 h; at 28.5 µM (top of the series)
ATTRIBUTE_MEASURED: growth, % of control

1. C#C[C@]1(O)CC[C@@H]2[C@H]3CCC4=CC(=O)CC[C@H]4[C@H]3C(=C)C[C@@]21CC :: 44.4%
2. CC[C@H]1OC(=O)[C@H](C)[C@@H](O[C@H]2C[C@@](C)(OC)[C@@H](O)[C@H](C)O2)C(C)[C@@H](O[C@@H]2O[C@H](C)C[C@H](N(C)C)[C@@H]2O)[C@](C)(OC)C[C@@H](C)C(=O)[C@H](C)[C@@H](O)[C@]1(C)O (some centres undefined) :: 37.4%
3. O=C(O)[C@H]1C(=CCO)O[C@H]2CC(=O)N12 :: 93.1%
4. CC(=O)[C@H]1CC[C@H]2[C@@H]3C=CC4=CC(=O)CC[C@@]4(C)[C@H]3CC[C@]12C :: 95.1%

---

system: AA1029; experiment: qHTS profiling for inhibitors of Plasmodium falciparum proliferation (AID 504749); further: nearly all actives have a fitted effect of over 60% in size; details: P. falciparum in erythrocytes, SYBR Green DNA, 72 h; series mostly up to 28.7 µM
Records with an inconclusive call do not appear. Calls of active or inactive are those of the source. Calls follow the shape of the dose curve; as a rule, active = well fitted inhibition curve with a large enough effect; inconclusive = small, poorly fitted or top-dose-only effect; inactive = flat fitted curve, though single readings scatter.
Outcome codes: 1 (yes) = active, 0 (no) = inactive

1) CC1=C(/C=C/C(C)=C/C=C/C(C)=C/C(=O)Oc2c(C)c(C)c3c(c2C)CC[C@@](C)(CCC[C@H](C)CCC[C@H](C)CCCC(C)C)O3)C(C)(C)CCC1 :: 0 (no)
2) COc1cc(NCCCC(C)N)c2ncccc2c1 (configuration not stated) :: 1 (yes)
3) CCN(CC)CCOc1ccccc1OC :: 0 (no)
4) O=C(NNCS(=O)(=O)O)c1ccncc1 :: 0 (no)
5) CC(C)=CCC/C(C)=C/CC/C(C)=C/CC/C=C(\C)CC/C=C(\C)CCC=C(C)C :: 0 (no)
6) c1ccc2ccccc2c1 :: 0 (no)
7) Nc1nccs1 :: 0 (no)
8) CSCCC(N)C(=O)O (configuration not stated) :: 0 (no)
9) FC(F)(F)C(F)(F)C(F)(F)C(F)(F)C(F)(F)C(F)(F)F :: 0 (no)
10) O=P(O)(O)CP(=O)(O)O :: 0 (no)
11) CC1CCCCN1CCCOC(=O)c1ccccc1 (configuration not stated) :: 0 (no)
12) CC1=CC(=O)NS(=O)(=O)O1 :: 0 (no)
13) NC(=O)CC[C@@H]1NC(=O)[C@H](Cc2ccccc2)NC(=O)[C@H](Cc2ccc(O)cc2)NC(=O)[C@@H](N)CSSC[C@@H](C(=O)N2CCC[C@H]2C(=O)N[C@@H](CCCN=C(N)N)C(=O)NCC(N)=O)NC(=O)[C@H](CC(N)=O)NC1=O :: 0 (no)
14) C#C[C@]1(O)CC[C@@H]2[C@H]3CCC4=CC(=O)CC[C@H]4[C@H]3C(=C)C[C@@]21CC :: 0 (no)
15) CC(=O)NCCCS(=O)(=O)O :: 0 (no)
16) Cc1cccc(C)c1NC(=O)C1CCCCN1C (configuration not stated) :: 0 (no)
17) COc1ccc2nc(NC(=O)Nc3ccccc3)sc2c1 :: 0 (no)
18) CC(C)=CCC/C(C)=C/C=C/C(C)=C/C=C/C(C)=C/C=C/C=C(C)/C=C/C=C(C)/C=C/C=C(\C)CCC=C(C)C :: 0 (no)
19) NC(=O)[C@H]1O[C@@H](O)[C@H](O)[C@@H](O)[C@@H]1O :: 0 (no)
20) CCCCCCCCCCCCCCCCCC[N+](C)(C)CCC[Si](OC)(OC)OC :: 0 (no)
21) O=C(O)COc1ccc(CCNS(=O)(=O)c2ccccc2)s1 :: 0 (no)
22) CCOC(=O)C1=C(COCCN)NC(C)=C(C(=O)OC)C1c1ccccc1Cl (configuration not stated) :: 0 (no)

---

biological target: Cytochrome P450 2D6 (Homo sapiens) (UniProt P10635); experiment: qHTS for inhibitors of CYP2D6 against the NCATS DSHEA and TCM libraries (AID 1919972); conditions: CYP2D6 enzymatic inhibition, luminescence qHTS; series mostly up to 34.1 µM; further: on the % scale 0 is the no-effect control and ±100 the full control effect
Sequence (P10635 whole entry, looked up): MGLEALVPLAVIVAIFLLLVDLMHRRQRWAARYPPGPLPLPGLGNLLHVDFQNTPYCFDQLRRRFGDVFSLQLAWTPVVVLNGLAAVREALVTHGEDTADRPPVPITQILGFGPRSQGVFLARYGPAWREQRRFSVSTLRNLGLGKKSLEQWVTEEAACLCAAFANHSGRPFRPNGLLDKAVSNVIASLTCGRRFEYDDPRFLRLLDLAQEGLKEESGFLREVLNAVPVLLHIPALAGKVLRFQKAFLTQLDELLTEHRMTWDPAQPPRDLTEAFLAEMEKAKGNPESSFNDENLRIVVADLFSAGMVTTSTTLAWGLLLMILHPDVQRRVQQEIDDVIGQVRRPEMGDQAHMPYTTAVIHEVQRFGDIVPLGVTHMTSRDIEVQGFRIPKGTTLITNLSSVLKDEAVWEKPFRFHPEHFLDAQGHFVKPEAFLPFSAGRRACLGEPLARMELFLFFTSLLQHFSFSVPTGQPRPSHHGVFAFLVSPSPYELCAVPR
Results filed as inconclusive are left out. The source made the active and inactive calls. Calls come from the whole dose curve; as a rule, active = well fitted inhibition curve with a large enough effect; inconclusive = small, poorly fitted or top-dose-only effect; inactive = no such curve, though single readings can be large or run the other way.
ATTRIBUTE_MEASURED: activity change, negative = inhibition

1. CCCCC/C=C\C/C=C\C/C=C\CCCCC(=O)O :: 3.71% [at 4.27 µM] (inactive)
2. COC1=C(OC)C(=O)C(C/C=C(\C)CC/C=C(\C)CC/C=C(\C)CC/C=C(\C)CC/C=C(\C)CC/C=C(\C)CC/C=C(\C)CC/C=C(\C)CC/C=C(\C)CCC=C(C)C)=C(C)C1=O :: inactive
3. Oc1ccc(/C=C/c2cc(O)cc(O)c2)cc1 :: inactive
4. CC1=CCC2CC1C2(C)C (stereo not given) :: inactive
5. CC(C)=CCC/C(C)=C/CC/C(C)=C/CC/C(C)=C/CC1=C(C)C(=O)c2ccccc2C1=O :: inactive
